Data origin: the supplement of paper PMC8975748

Documented mean cell size across a set of compounds
# Tested on: Saccharomyces cerevisiae BY4741 SeMeCo community
# Method notes: mean cell size (pixel area) (pixels); higher = larger cells
# Measurement setup: 10 µM; 24 h; SM minimal medium
Where a name gives a salt, the structure may show the parent alone.
Metric name: mean cell size

| Compound | Endpoint result |
| --- | --- |
| Nc1nc(N)c2nc(-c3ccccc3)c(N)nc2n1 | 12.6 |
| CN(C)CC(c1ccc(O)cc1)C1(O)CCCCC1 (configuration not stated) | 12.4 |
| CC(C)[C@H]1CC[C@H](C(=O)N[C@H](Cc2ccccc2)C(=O)O)CC1 [Nateglinide] | 12.5 |
| Nc1c(Br)cc(Br)cc1CN[C@H]1CC[C@H](O)CC1 [Ambroxol HCl] | 12.1 |
| CN1CCC(=C2c3ccccc3C=Cc3ccccc32)CC1 [Cyproheptadine hydrochloride] | 12.6 |
| Cn1c(=O)c2c(ncn2CC2OCCO2)n(C)c1=O | 12.2 |
| CCN(CC)C(=O)N1CCN(C)CC1 [Diethylcarbamazine citrate] | 12.6 |
| Cc1cc(CC(C)CC(C)(C)C)n(O)c(=O)c1 (configuration not stated) | 12 |
| COc1cc(/C=C/C(=O)N2CCN(CC(=O)N3CCCC3)CC2)cc(OC)c1OC [Cinepazide maleate] | 12.6 |
| CCCCNC(=O)NS(=O)(=O)c1ccc(C)cc1 [Tolbutamide] | 12.5 |
| CC(=O)NC[C@H]1CN(c2ccc(N3CCOCC3)c(F)c2)C(=O)O1 | 12.5 |
| O=C(Nc1cc(Cl)cc(Cl)c1O)c1c(O)c(Cl)cc(Cl)c1Cl [Oxyclozanide] | 12.2 |
| CO[C@@H]1[C@@H](O[C@@H]2O[C@H](C)[C@@H](O[C@H]3C[C@@](C)(O)[C@@H](OC(=O)CC(C)C)[C@H](C)O3)[C@H](N(C)C)[C@H]2O)[C@@H](CC=O)C[C@@H](C)[C@@H](O)/C=C/C=C/C[C@@H](C)OC(=O)C[C@H]1O | 12.3 |
| CC(=O)[C@H]1CC[C@H]2[C@@H]3CCC4=CC(=O)CC[C@]4(C)[C@H]3CC[C@]12C | 12.5 |
| O=C(O)c1cc(O)c2c(c1)[C@H]([C@H]1c3cc(C(=O)O)cc(O)c3C(=O)c3c(O[C@@H]4O[C@H](CO)[C@@H](O)[C@H](O)[C@H]4O)cccc31)c1cccc(O[C@@H]3O[C@H](CO)[C@@H](O)[C@H](O)[C@H]3O)c1C2=O [Sennoside A] | 12.6 |
| Cc1nccn1CC1CCc2c(c3ccccc3n2C)C1=O (configuration not stated) [Ondansetron Hydrochloride Dihydrate] | 12.3 |
| CO[C@@]1(NC(=O)Cc2cccs2)C(=O)N2C(C(=O)O)=C(COC(N)=O)CS[C@@H]21 [Cefoxitin sodium] | 12.5 |

---

# Test system: Saccharomyces cerevisiae BY4741 SeMeCo community
# Method notes: z-score of subpopulation abundance vs DMSO median, subpopulation auxotrophic for HL; higher = larger share of this subpopulation than in DMSO controls
# Measurement setup: 10 µM; 24 h; SM minimal medium; subpopulation (auxotrophy): HL
Structures can show the parent of a compound that is named as a salt.

| Compound | z-score of subpopulation abundance |
| --- | --- |
| CC1(C)S[C@@H]2[C@H](NC(=O)[C@H](N)c3ccccc3)C(=O)N2[C@H]1C(=O)O [Ampicillin sodium] | -0.73 |
| CCCC(=O)OCOC(=O)C1=C(C)NC(C)=C(C(=O)OC)C1c1cccc(Cl)c1Cl (stereo not drawn) [Clevidipine Butyrate] | 2.31 |
| CN1CCN(c2c(F)cc3c(=O)c(C(=O)O)cn4c3c2OCN4C)CC1 | -0.85 |
| CCCCCCCCc1ccc(CCC(N)(CO)CO)cc1 | -1.71 |
| O=C(O)Cc1ccccc1Nc1c(Cl)cccc1Cl [Diclofenac Sodium] | -0.56 |
| CC(C(=O)O)c1cccc(C(=O)c2ccccc2)c1 (stereo not drawn) | 1.42 |
| Nc1nc2c(ncn2COCCO)c(=O)[nH]1 | -0.76 |
| C/C=C1\[C@H]2C=C(C)C[C@]1(N)c1ccc(=O)[nH]c1C2 [(-)-Huperzine A (HupA)] | -1.26 |
| CC[C@@H]1/C=C(\C)C[C@H](C)C[C@H](OC)[C@H]2O[C@@](O)(C(=O)C(=O)N3CCCC[C@H]3C(=O)O[C@H](/C(C)=C/[C@@H]3CC[C@@H](O)[C@H](OC)C3)[C@H](C)[C@@H](O)CC1=O)[C@H](C)C[C@@H]2OC | 2.56 |
| CN(C)[C@@H](CCOc1cccc2ccccc12)c1ccccc1 [Dapoxetine HCl] | 0.57 |
| O=C(O)CCC(=O)Nc1ccc(S(=O)(=O)Nc2nccs2)cc1 | -0.84 |
| CN1CCC[C@@H]1Cc1c[nH]c2ccc(CCS(=O)(=O)c3ccccc3)cc12 | -0.15 |
| Oc1c(Cl)cc(Cl)cc1Sc1cc(Cl)cc(Cl)c1O | 3.98 |
| CCN(Cc1ccncc1)C(=O)C(CO)c1ccccc1 (stereo not drawn) [Tropicamide] | 0.16 |
| COc1ccc(CCN(C)CCCC(C#N)(c2ccc(OC)c(OC)c2)C(C)C)cc1OC (stereo not drawn) [Verapamil HCl] | 0.26 |
| CC(C)C(=O)c1c(C(C)C)nn2ccccc12 | -0.96 |
| CC(C[N+](C)(C)C)OC(N)=O (stereo not drawn) [Bethanechol chloride] | -0.24 |
| O=[N+]([O-])c1ccc(O)c2ncccc12 | 22.6 |
